# systemTested: T1, Bacillus stearothermophilus DnaB helicase (B. stearothermophilus, UniProt Q9X4C9 1-454)
# T1 sequence (looked up): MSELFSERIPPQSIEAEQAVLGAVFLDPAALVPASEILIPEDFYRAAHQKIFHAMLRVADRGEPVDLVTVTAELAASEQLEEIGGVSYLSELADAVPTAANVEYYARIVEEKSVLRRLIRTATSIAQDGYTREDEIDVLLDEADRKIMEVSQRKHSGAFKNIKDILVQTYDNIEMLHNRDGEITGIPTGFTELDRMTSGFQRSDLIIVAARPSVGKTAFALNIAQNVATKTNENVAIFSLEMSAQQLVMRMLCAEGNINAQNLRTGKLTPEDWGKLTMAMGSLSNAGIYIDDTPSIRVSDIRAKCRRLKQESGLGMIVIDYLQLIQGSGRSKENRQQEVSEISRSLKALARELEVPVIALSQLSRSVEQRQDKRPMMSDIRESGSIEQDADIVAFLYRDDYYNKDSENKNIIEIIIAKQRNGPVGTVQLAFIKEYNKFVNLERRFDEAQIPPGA
# experiment: SPR

>  <binder>
MEPIGRSLQGVTGRPDFQ [unmodified peptide corresponding to residues 1-18 of DnaI]

>  <valueComparator>
>

>  <Kd [µM]>
140

$$$$
>  <binder>
DnaI-N123 (residues 1-123 of B. subtilis DnaI) (domain or fragment, UniProt P06567 1-123, looked up) MEPIGRSLQGVTGRPDFQKRLEQMKEKVMKDQDVQAFLKENEEVIDQKMIEKSLNKLYEYIEQSKNCSYCSEDENCNNLLEGYHPKLVVNGRSIDIEYYECPVKRKLDQQKKQQSLMKSMYIQ

>  <valueComparator>
=

>  <Kd [µM]>
7.3

$$$$
>  <binder>
DnaI-N106 (N-terminal 106 residues of B. subtilis DnaI) (domain or fragment, UniProt P06567 1-106, looked up) MEPIGRSLQGVTGRPDFQKRLEQMKEKVMKDQDVQAFLKENEEVIDQKMIEKSLNKLYEYIEQSKNCSYCSEDENCNNLLEGYHPKLVVNGRSIDIEYYECPVKRK

>  <valueComparator>
=

>  <Kd [µM]>
18.5

$$$$
>  <binder>
DnaI-N132 (residues 1-132 of B. subtilis DnaI, C-terminal His6) (domain or fragment, UniProt P06567 1-132, looked up) MEPIGRSLQGVTGRPDFQKRLEQMKEKVMKDQDVQAFLKENEEVIDQKMIEKSLNKLYEYIEQSKNCSYCSEDENCNNLLEGYHPKLVVNGRSIDIEYYECPVKRKLDQQKKQQSLMKSMYIQQDLLGATFQ

>  <valueComparator>
=

>  <Kd [µM]>
0.65

$$$$
